System: NCI-H460
Experiment: NCI tumour cell line growth inhibition, 48 h
The source made the active and inactive calls. Rule as the data show it: active = GI50 up to about 1.1 µM and inactive = higher.
In this section we review reported GI50 values for a set of compounds.

| Compound | GI50 |
| --- | --- |
| Cc1ccc(S(=O)(=O)NC(=O)Nc2ccc(C(=O)O)cc2)cc1 | > 100 µM (inactive) |
| N=C(N)SCC(=O)O | > 100 µM (inactive) |
| COc1ccccc1NC(=O)c1nc2ccc([N+](=O)[O-])cc2nc1C | > 100 µM (inactive) |

q: Supply GI50 value. Item: `N#Cc1ccc(OC(=O)c2ccc(NC(=N)N)cc2)cc1.c1ccncc1`
a: > 100 µM (inactive)

q: Supply GI50 value. Item: `CCOC(=O)c1ccc2nc(-c3ccc(S(=O)(=O)F)cc3)cc(O)c2c1`
a: 34.4 µM (inactive)

q: Supply GI50 value. Item: COc1cc(C2C(C(=O)O)=C(COC(C)=O)Oc3cc4c(cc32)OCO4)cc(OC)c1OC(C)=O (stereo unspecified)
a: > 100 µM (inactive)

q: Supply GI50 value. Item: `CC1=C[P+](c2ccccc2)(c2ccccc2)c2ccccc2O1`
a: 20.5 µM (inactive)

q: Supply GI50 value. Item: `COc1ccc(NC(=O)CC(=O)N/N=C/c2ccc(N(CCC#N)S(=O)(=O)c3ccccc3)cc2)cc1`
a: > 100 µM (inactive)

q: Supply GI50 value. Item: `O=Cc1ccc2ccocc1-2`
a: > 100 µM (inactive)

q: Supply GI50 value. Item: `Cc1ccc(F)cc1NC(=O)O/N=C(\Cl)C(C)C`
a: 29.2 µM (inactive)

q: Supply GI50 value. Item: `O=C1Oc2ccccc2C(=O)/C1=C/NC(=S)NCCc1ccccc1`
a: 23.8 µM (inactive)

----------
Test system: TK-10
Experiment: NCI tumour cell line growth inhibition, 48 h
Active and inactive are the calls of the source. No stated cut-off is given here; in the data, active = GI50 up to about 1.1 µM and inactive = higher.
Your response should consist of one outcome taken from y (active), n (inactive)

Below are worked cases with known answers.
| Compound | System Name | Classification |
| --- | --- | --- |
| CN(CCc1ccccn1)C(=S)N/N=C(\c1ccccc1)c1ccccn1 | TK-10 | y |
| O=C(CC(=O)n1nc(-c2ccccc2)c(/N=N/c2ccc(Cl)cc2)c1-c1ccccc1)Nc1ccc(Cl)cc1 | TK-10 | n |
| O=C(c1ccc(Cl)cc1Cl)N(Cc1cccnc1)C(=S)N(Cc1cccnc1)C(=O)c1ccc(Cl)cc1Cl | TK-10 | n |
| Cc1cc2nc(CC(C(F)(F)F)C(F)(F)F)oc2cc1C | TK-10 | n |

q: I would be grateful if you could indicate the recorded call for CC(C)C(N)C(=O)NC(CCC(=O)NCCCCC(N)C(=O)NCCCNc1ccc([N+](=O)[O-])c2[nH]c3ccccc3c(=O)c12)C(N)=O (centres undefined) .
a: n

q: I would be grateful if you could indicate the recorded call for `O=C(O)CCNCCCNCCC(=O)O` .
a: n

q: I would be grateful if you could indicate the recorded call for `O=C(O)COc1ccc(O)c2c1C(=O)CCCC2=O` .
a: n

----------
System: NCI-H460
Experiment: NCI tumour cell line growth inhibition, 48 h
The source made the active and inactive calls. Rule as the data show it: active = GI50 up to about 1.1 µM and inactive = higher. Starred links: 1 amine or outer side, 2 acyl side, 3 side chain; linkers in the order of their positions; H or OH if unused. Non-standard residues stand in square brackets, D forms with d. Residues, ends and D or L forms follow the SMILES beside them. ξ: configuration not given here. X24 = O=C(C(CC(O)CO)O[*:1])[*:2]; Ile(3ξ) = CCC(C)[C@H](N)C(=O)O; NMeV = CN[C@H](C(=O)O)C(C)C; NMeA = CN[C@@H](C)C(=O)O; βAla = NCCC(=O)O
Your response should consist of one outcome taken from active, inactive

| Compound | Classification |
| --- | --- |
| CCCCCCC(O)C(=O)OC1C2C(CC1(C)C)C(O)C13OC1C(O)C1(CO1)[C@@]23C (some centres undefined) | inactive |
| CC(C)OCC(O)COc1ccc2ccc(=O)oc2c1 (centres undefined) | inactive |
| O=C(/C=C1\C[C@H]2C=Nc3ccccc3C(=O)N2C1)NCCCCCNC(=O)/C=C1\C[C@H]2C=Nc3ccccc3C(=O)N2C1 | inactive |
| O=C1CNNC(Cn2nc(-c3ccccc3)c3ccccc3c2=O)=N1 | inactive |
| CCC(C)[C@@H]1NC(=O)[C@@H]2CCCN2C(=O)C(CC(O)CO)OC(=O)CCNC(=O)[C@H](C)N(C)C(=O)[C@H](C(C)C)N(C)C1=O (some centres undefined) (cyclo([Ile(3ξ)][NMeV][NMeA][βAla][X24]P)) | inactive |
| Cc1cc(C#N)c(Nc2c(C)cccc2[N+](=O)[O-])s1 | inactive |
| N#Cc1nc(CCCN2C(=O)c3ccccc3C2=O)oc1N | inactive |
| COC(=O)CNC(=O)Nc1cc(N2C(=O)ON3C2C(C)(C)N(O)C3(C)C)ccc1C (centres undefined) | inactive |

q: I would be grateful if you could indicate the recorded call for `CCOC(=O)NC(=O)c1cn(CCSCCOC(=O)NCCCCCCNC(=O)OCCSCCn2cc(C(=O)NC(=O)OCC)c(=O)n(C)c2=O)c(=O)n(C)c1=O` .
a: inactive

q: I would be grateful if you could indicate the recorded call for `COc1ccc2nc(C)cc(NCCCCCCCCCNc3cc(C)nc4ccc(OC)cc34)c2c1` .
a: active

q: I would be grateful if you could indicate the recorded call for `Cc1cc2nc(CC(C(F)(F)F)C(F)(F)F)oc2cc1C` .
a: inactive

q: I would be grateful if you could indicate the recorded call for `Cc1cn(CCCCCCC2=NCCCN2)c(=O)[nH]c1=O` .
a: inactive

q: I would be grateful if you could indicate the recorded call for `Cc1ccc(-n2c(N)c(C#N)c3[nH]nc(N)c3c2=O)cc1` .
a: inactive

q: I would be grateful if you could indicate the recorded call for COC(=O)C(COC(C)=O)NC(=O)/C=C/c1ccc(O)c(OC(C)=O)c1 (centres undefined) .
a: inactive
